Biological target: FXR (Homo sapiens)
Sequence (Q96RI1 whole entry, the tested form may be a part): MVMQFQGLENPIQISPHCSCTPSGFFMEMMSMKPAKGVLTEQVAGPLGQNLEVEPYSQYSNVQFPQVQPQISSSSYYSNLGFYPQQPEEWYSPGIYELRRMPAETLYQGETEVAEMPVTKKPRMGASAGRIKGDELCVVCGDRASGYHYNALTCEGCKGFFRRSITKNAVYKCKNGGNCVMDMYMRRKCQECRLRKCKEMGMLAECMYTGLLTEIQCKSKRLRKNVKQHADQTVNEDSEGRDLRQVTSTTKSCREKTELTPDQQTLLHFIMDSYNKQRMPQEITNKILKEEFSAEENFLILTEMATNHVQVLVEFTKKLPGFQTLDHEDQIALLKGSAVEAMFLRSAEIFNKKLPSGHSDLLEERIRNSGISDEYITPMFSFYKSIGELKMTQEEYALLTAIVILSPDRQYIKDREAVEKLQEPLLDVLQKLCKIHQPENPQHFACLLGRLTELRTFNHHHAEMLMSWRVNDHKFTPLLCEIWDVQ
Test: FXR Transactivation Assay (GAL4 luciferase reporter, pBIND-FXR in HEK293T)
Details: HEK293T cells
Recorded EC50 by entry
quantity_name: EC50

>>> print(df.to_string())
                                    compound  experimental_result
 0  CCC1CN(Cc2c(-c3c(Cl)cccc3Cl)noc2C(C)C)CCN1c1nc2c(OC)cc(C(=O)O)cc2s1 (stereo not shown)       0.01 to 0.1 µM
 1  CC(C)c1onc(-c2c(Cl)cccc2Cl)c1CC1CCN(c2nc3c(F)cc(C(=O)O)cc3s2)CC1        0.401 to 5 µM
 2  COc1cc(C(=O)O)cc2sc(N3CCC(Cc4c(-c5ccccc5OC(F)(F)F)noc4C4CC4)CC3)nc12       0.01 to 0.1 µM
 3  COc1cc(C(=O)O)cc2sc(N3CCN(Cc4c(-c5c(Cl)cccc5Cl)noc4C4CC4)CC3C)nc12 (stereo not shown) [II-13]       0.01 to 0.1 µM
 4  COc1cc(C(N)=O)cc2nc(N3CCN(Cc4c(-c5c(Cl)cccc5Cl)noc4C4CC4)C[C@@H]3C)sc12        0.401 to 5 µM
 5  Cc1cc(C(=O)O)cc2sc(N3CCC(Cc4c(C(C)C)cnn4-c4c(Cl)cccc4Cl)CC3)nc12      0.101 to 0.4 µM
 6  COc1cc(C(=O)O)cc2sc(N3CCN(Cc4c(-c5c(Cl)cccc5Cl)noc4C(C)C)CC3CO)nc12 (stereo not shown)        0.401 to 5 µM
 7  COc1cc(C(=O)O)cc2sc(N3CCN(Cc4c(-c5c(Cl)cccc5Cl)noc4C4CC4)C(C)C3)nc12 (stereo not shown)      0.101 to 0.4 µM
 8  CCC1CN(c2nc3c(OC)cc(C(=O)O)cc3s2)CCN1Cc1c(-c2c(Cl)cccc2Cl)noc1C(C)C (stereo not shown)      0.101 to 0.4 µM
 9  CCC1CN(c2nc3c(OC)cc(C(=O)O)cc3s2)CCN1Cc1c(-c2c(Cl)cccc2Cl)noc1C1CC1 (stereo not shown)      0.101 to 0.4 µM
10  COc1cc(C(N)=O)cc2sc(N3CCN(Cc4c(-c5c(Cl)cncc5Cl)noc4C4CC4)C[C@H]3C)nc12      0.101 to 0.4 µM
11  COc1cc(C(=O)O)cc2sc(N3CCC(Cc4c(-c5c(Cl)cccc5Cl)noc4C(C)C)C[C@H]3C)nc12 (stereo partly shown)       0.01 to 0.1 µM
12  COc1cc(C(=O)O)cc2sc(N3CCN(Cc4c(-c5c(Cl)cccc5Cl)noc4C(C)C)CC3(C)C)nc12      0.101 to 0.4 µM

* * *

Recorded pEC50 by entry
Target: FXR (Homo sapiens)
Experiment: FXR Transactivation Assay (GAL4 luciferase reporter, pBIND-FXR in HEK293T)
Conditions: HEK293T cells
Experimental: FXR Transactivation Assay pGL4.35 [luc2P/9XGAL4 UAS/Hygro] Steady-Glo™ Luciferase Assay System GW4064 as a positive control • 1. Hek293T cells were plated at 1.1*10^6/ml into a 100 mm dish. • 2. […] Cells were incubated at 37° C. under 5% CO2 atmosphere. • 3. All of compounds were 3-fold serial diluted from 10 mM stock for 10 doses in DMSO. • 4. Transfer compound dilutions into 384 well assay plates using liquid workstation. • 5. […]
pEC50: −log10 of the molar value.
quantity_name: pEC50

>>> print(df.to_string())
                                    molecule  experimental_result
 0  COc1cc(C(=O)O)cc2sc(N3CCN(Cc4c(C(C)C)cnn4-c4c(Cl)cccc4Cl)CC3C)nc12 (stereo not drawn) [II-14]         5.30 to 6.40
 1  COc1cc(C(N)=O)cc2sc(N3CCN(Cc4c(-c5c(Cl)cccc5Cl)noc4C(C)C)CC3)nc12         6.40 to 7.00
 2  CC(C)c1onc(-c2c(Cl)cccc2Cl)c1CC1CCN(c2nc3ccc(C(=O)O)cc3s2)CC1         5.30 to 6.40
 3  COc1cc(C(=O)O)cc2sc(N3CCC(Cc4c(C(C)C)cnn4-c4c(Cl)cccc4Cl)CC3)nc12         5.30 to 6.40
 4  CC(C)c1cc(C(=O)O)cc2sc(N3CCN(Cc4c(-c5c(Cl)cccc5Cl)noc4C4CC4)C[C@H]3C)nc12         7.00 to 8.00
 5  COc1cc(C(=O)O)cc2sc(N3C4CCC3CN(Cc3c(-c5c(Cl)cccc5Cl)noc3C3CC3)C4)nc12         7.00 to 8.00
 6  COc1cc(C(=O)O)cc2sc(N3CCC(Cc4c(-c5c(Cl)cccc5Cl)noc4C(C)C)CC3)nc12         6.40 to 7.00
 7  COc1cc(C(=O)O)cc2sc(N3CCN(Cc4c(-c5c(Cl)cccc5Cl)noc4C4CC4)CC3C)nc12 (stereo not drawn) [II-11]         6.40 to 7.00
 8  COc1cc(C(=O)O)cc2sc(N3CCN(Cc4c(-c5c(Cl)cccc5Cl)noc4C(C)C)C(C)C3)nc12 (stereo not drawn)         7.00 to 8.00
 9  COc1cc(C(=O)O)cc2sc(N3CCN(Cc4c(-c5c(Cl)cccc5Cl)noc4C(C)C)CC34CC4)nc12         5.30 to 6.40
10  C[C@@H]1CN(Cc2c(-c3c(Cl)cccc3Cl)noc2C2CC2)CCN1c1nc2c(OC(F)(F)F)cc(C(=O)O)cc2s1         7.00 to 8.00
11  COc1cc(C(=O)O)cc2sc(N3CCN(Cc4c(C(C)C)cnn4-c4c(Cl)cccc4Cl)CC3C)nc12 (stereo not drawn) [II-15]         7.00 to 8.00
12  COc1cc(C(=O)O)cc2sc(N3CCC(Cc4c(-c5c(Cl)cncc5Cl)noc4C4CC4)CC3)nc12         5.30 to 6.40
13  COc1cc(C(=O)O)cc2sc(N3CCCN(Cc4c(-c5c(Cl)cccc5Cl)noc4C(C)C)CC3)nc12         6.40 to 7.00
14  COc1cc(C(=O)O)cc2sc(N3CCN(Cc4c(-c5c(Cl)cccc5Cl)noc4C(C)C)C4(CC4)C3)nc12         6.40 to 7.00
